Data origin: patent US4948782A

Test system: Staphylococcus aureus ATCC 6538P
Assay: MIC, Staphylococcus aureus ATCC 6538P (SA(1))
Assay type: cell-based
Conditions: Staphylococcus aureus, ATCC6538P, Staphylococcus aureus ATCC 6538P; read-out: MIC SA (1)
Listed below: MIC values for each entry.
endpoint.label: MIC

{"compound": "CCCCN(C)C1CC(C)OC(OC2C(C)C(OC3CC(C)(OC)C(O)C(C)O3)C(C)C(=O)OC(CC)C(C)(O)C(O)C(C)C3=C(C)CC2(C)O3)C1O (stereo not shown) [Compound 11]", "result": "> 100 µg/mL"}
{"compound": "CCC1OC(=O)C(C)C(OC2CC(C)(OC)C(O)C(C)O2)C(C)C(OC2OC(C)CC([N+](CC)(CC)CC)C2O)C2(C)CC(C)=C(O2)C(C)C(O)C1(C)O (stereo not shown) [Compound 23]", "result": "> 100 µg/mL"}
{"compound": "CCCC[N+](C)(C)[C@H]1C[C@@H](C)O[C@@H](O[C@@H]2[C@@H](C)[C@H](O[C@H]3C[C@@](C)(OC)[C@@H](O)[C@H](C)O3)[C@@H](C)C(=O)O[C@H](CC)[C@@](C)(O)[C@H](O)[C@@H](C)C3O[C@]2(C)CC3C)[C@@H]1O (stereo partly shown) [Compound 65]", "result": "100 µg/mL"}
{"compound": "CC[C@H]1OC(=O)[C@H](C)[C@@H](O[C@H]2C[C@@](C)(OC)[C@@H](O)[C@H](C)O2)[C@H](C)[C@@H](O[C@@H]2O[C@H](C)C[C@H]([N+](C)(C)CC)[C@H]2O)[C@@]2(C)CC(C)C3(O[C@@]1(C)[C@H](O)[C@H]3C)O2 (stereo partly shown) [Compound 71]", "result": "> 100 µg/mL"}

----------
Test system: Staphylococcus aureus ATCC 6538P
Experiment: MIC, Staphylococcus aureus ATCC 6538P (SA(1))
Type: cell-based
Conditions: Staphylococcus aureus, ATCC6538P, Staphylococcus aureus ATCC 6538P; read-out: MIC SA (1)
Listed below: MIC values for each entry.

{"molecule": "CCC1OC(=O)C(C)C(OC2CC(C)(OC)C(O)C(C)O2)C(C)C(OC2OC(C)CC(N(C)CCO)C2O)C2(C)CC(C)=C(O2)C(C)C(O)C1(C)O (stereo not shown)", "measurement.qualifier": ">", "MIC (µg/mL)": 100}
{"molecule": "C#CC[N+](C)(C)C1CC(C)OC(OC2C(C)C(OC3CC(C)(OC)C(O)C(C)O3)C(C)C(=O)OC(CC)C(C)(O)C(O)C(C)C3=C(C)CC2(C)O3)C1O (stereo not shown)", "measurement.qualifier": "=", "MIC (µg/mL)": 100}
{"molecule": "C#CCN(CC#C)C1CC(C)OC(OC2C(C)C(OC3CC(C)(OC)C(O)C(C)O3)C(C)C(=O)OC(CC)C(C)(O)C(O)C(C)C3=C(C)CC2(C)O3)C1O (stereo not shown)", "measurement.qualifier": ">", "MIC (µg/mL)": 100}
{"molecule": "CCC1OC(=O)C(C)C(OC2CC(C)(OC)C(O)C(C)O2)C(C)C(OC2OC(C)CC([N+](C)(C)CC3CC3)C2O)C2(C)CC(C)=C(O2)C(C)C(O)C1(C)O (stereo not shown)", "measurement.qualifier": "=", "MIC (µg/mL)": 100}
{"molecule": "CCC1OC(=O)C(C)C(OC2CC(C)(OC)C(O)C(C)O2)C(C)C(OC2OC(C)CC(NC)C2O)C2(C)CC(C)=C(O2)C(C)C(O)C1(C)O (stereo not shown)", "measurement.qualifier": ">", "MIC (µg/mL)": 100}
{"molecule": "CCC1OC(=O)C(C)C(OC2CC(C)(OC)C(O)C(C)O2)C(C)C(OC2OC(C)CC([N+]3(C)CCCCC3)C2O)C2(C)CC(C)=C(O2)C(C)C(O)C1(C)O (stereo not shown)", "measurement.qualifier": ">", "MIC (µg/mL)": 100}
{"molecule": "CCCC[N+](C)(C)C1CC(C)OC(OC2C(C)C(OC3CC(C)(OC)C(O)C(C)O3)C(C)C(=O)OC(CC)C(C)(O)C(O)C(C)C3=C(C)CC2(C)O3)C1O (stereo not shown)", "measurement.qualifier": "=", "MIC (µg/mL)": 100}
{"molecule": "CC[C@H]1OC(=O)[C@H](C)[C@@H](O[C@H]2C[C@@](C)(OC)[C@@H](O)[C@H](C)O2)[C@H](C)[C@@H](O[C@@H]2O[C@H](C)C[C@H](N(C)CC)[C@H]2O)[C@@]2(C)CC(C)C(O2)[C@H](C)[C@@H](O)[C@]1(C)O (stereo partly shown)", "measurement.qualifier": ">", "MIC (µg/mL)": 100}
{"molecule": "CC[C@H]1OC(=O)[C@H](C)[C@@H](O[C@H]2C[C@@](C)(OC)[C@@H](O)[C@H](C)O2)[C@H](C)[C@@H](O[C@@H]2O[C@H](C)C[C@H]([N+](C)(C)CC)[C@H]2O)[C@@]2(C)CC(C)C(O2)[C@H](C)[C@@H](O)[C@]1(C)O (stereo partly shown)", "measurement.qualifier": ">", "MIC (µg/mL)": 100}
{"molecule": "CC[C@H]1OC(=O)[C@H](C)[C@@H](O[C@H]2C[C@@](C)(OC)[C@@H](O)[C@H](C)O2)[C@H](C)[C@@H](O[C@@H]2O[C@H](C)C[C@H]([N+](C)(C)CC)[C@H]2O)[C@](C)(O)C[C@@H](C)C(=O)[C@H](C)[C@@H](O)[C@]1(C)O", "measurement.qualifier": "=", "MIC (µg/mL)": 6.25}
